Below are pIC50 values for Tyrosine-protein kinase JAK2 (Homo sapiens, UniProt O60674) collected from several publications.
pIC50: −log10 of the molar value.

Recorded results for 3 compounds are shown here.
>>> print(df.to_string())
                                   compound        result
0  CC(C)COc1ccc2cc1COc1ccc(cc1)NC(=O)c1ccc(c(N)c1)-c1ccnc(n1)N2  5.00 to 6.00
1  N#CCC(C1CCCC1)n1cc(-c2ccnc(Nc3ccc(NC(=O)CNCC4CC4)cc3)n2)cn1 (racemic)        > 7.00
2  CN(c1ncnc2[nH]ccc12)N1CCCC(N2CCCC2=O)C1 (centres unmarked)        < 6.00

Requested field: pIC50. Item: C=CC(=O)N1CCCc2cc(Sc3nc(Nc4ccc(N5CCOCC5)cc4)ncc3C)ccc21
< 6.00

Requested field: pIC50. Item: CC(C)Oc1ccc2cc1COCC[C@@H](C)CNC(=O)c1ccc(c(N)c1)-c1ccnc(n1)N2
7.00 to 7.96

* * *

Below are pIC50 values for UniProt O60674 collected from several publications.
pIC50: −log10 of the molar value.

Recorded results for 5 compounds are shown here.
                                test_smiles        result
0  Cc1nc(C)c(Nc2ncnc(-c3ccc(O[C@H]4CCN(C(=O)[C@H](C)O)C[C@H]4F)c(C#N)c3)n2)s1        ≤ 6.00
1  CN(c1ncnc2[nH]ccc12)C1CC2(C1)CN(C(=O)c1ccn(C)n1)C2        ≤ 5.00
2  C=CC1(n2ccc(-c3nc(-c4cnn(C)c4)cc4nccn34)c2)CN(S(=O)(=O)C(F)(F)F)C1  7.00 to 8.00
3  Cc1cc(-c2ncnc(Nc3ccc(N4CCN(C5COC5)CC4)cc3)n2)cc(C#N)c1O[C@H]1CCN(C(=O)[C@H](C)O)C[C@H]1F        ≤ 6.00
4  CCS(=O)(=O)N1CC(CC#N)(n2cc(-c3nc(Nc4cnn(C5CCN(C)CC5)c4)nc4ccsc34)cn2)C1        > 7.30

// next item, pIC50 requested
What measured pIC50 is associated with CCC(=O)c1cnc(Nc2ncc(CN3CCCC3)cc2F)cc1Nc1cccc(-c2ncn(C)n2)c1OC on UniProt O60674?
≤ 6.30

* * *

pIC50: −log10 of the molar value.
Below are pIC50 values for Tyrosine-protein kinase JAK2 (Homo sapiens) collected from several publications.

Recorded results for 6 molecules are shown here.
>>> print(df.to_string())
                                   molecule  result
0  C[C@@H](O)c1nc2cnc3ccsc3c2n1[C@H]1CC[C@@H](C#N)CC1  ≥ 5.70
1  N#CCC(C1CCCC1=O)n1cc(-c2ncnc3[nH]ccc23)c(N)n1 (stereo not drawn)  > 7.52
2  CC(=O)Nc1ccc(Nc2ncnc(-c3ccc(O[C@H]4CCN(C(=O)[C@@H]5CCC(=O)N5)C[C@H]4F)c(C#N)c3)n2)cn1  ≤ 6.00
3  C=CC(=O)Nc1ccc(Sc2ccnc(Nc3cccc(S(=O)(=O)NCCC(C)C)c3)n2)cc1  < 6.00
4  N#CCC1(n2ccc(-c3ncnc4[nH]ccc34)c2)CN(C2CCN(C(=O)c3cccc(F)c3F)CC2)C1  ≥ 8.00
5  CNC(=O)c1ccc(Nc2ncc(C)c(-c3cnn(C(CC#N)C4CCCC4)c3)n2)cc1 (racemic)  > 7.00

// next item, pIC50 requested
Requested field: pIC50. Item: CCC1CN(c2ccc(C#N)cn2)CCC1Nc1nc(Nc2ccn3c(C)cnc3c2)ncc1Cl (stereo not drawn)
8.52
